Field: pEC50. Provide a value for each of the compounds that follow.
Target: TLR7 (Homo sapiens)
Construct: Human peripheral blood mononuclear cells (PBMCs) consist of lymphocytes, monocytes and dendritic cells that express TLR7, TLR8 and TLR9; endogenous in cells
Sequence (Q9NYK1 27-1049): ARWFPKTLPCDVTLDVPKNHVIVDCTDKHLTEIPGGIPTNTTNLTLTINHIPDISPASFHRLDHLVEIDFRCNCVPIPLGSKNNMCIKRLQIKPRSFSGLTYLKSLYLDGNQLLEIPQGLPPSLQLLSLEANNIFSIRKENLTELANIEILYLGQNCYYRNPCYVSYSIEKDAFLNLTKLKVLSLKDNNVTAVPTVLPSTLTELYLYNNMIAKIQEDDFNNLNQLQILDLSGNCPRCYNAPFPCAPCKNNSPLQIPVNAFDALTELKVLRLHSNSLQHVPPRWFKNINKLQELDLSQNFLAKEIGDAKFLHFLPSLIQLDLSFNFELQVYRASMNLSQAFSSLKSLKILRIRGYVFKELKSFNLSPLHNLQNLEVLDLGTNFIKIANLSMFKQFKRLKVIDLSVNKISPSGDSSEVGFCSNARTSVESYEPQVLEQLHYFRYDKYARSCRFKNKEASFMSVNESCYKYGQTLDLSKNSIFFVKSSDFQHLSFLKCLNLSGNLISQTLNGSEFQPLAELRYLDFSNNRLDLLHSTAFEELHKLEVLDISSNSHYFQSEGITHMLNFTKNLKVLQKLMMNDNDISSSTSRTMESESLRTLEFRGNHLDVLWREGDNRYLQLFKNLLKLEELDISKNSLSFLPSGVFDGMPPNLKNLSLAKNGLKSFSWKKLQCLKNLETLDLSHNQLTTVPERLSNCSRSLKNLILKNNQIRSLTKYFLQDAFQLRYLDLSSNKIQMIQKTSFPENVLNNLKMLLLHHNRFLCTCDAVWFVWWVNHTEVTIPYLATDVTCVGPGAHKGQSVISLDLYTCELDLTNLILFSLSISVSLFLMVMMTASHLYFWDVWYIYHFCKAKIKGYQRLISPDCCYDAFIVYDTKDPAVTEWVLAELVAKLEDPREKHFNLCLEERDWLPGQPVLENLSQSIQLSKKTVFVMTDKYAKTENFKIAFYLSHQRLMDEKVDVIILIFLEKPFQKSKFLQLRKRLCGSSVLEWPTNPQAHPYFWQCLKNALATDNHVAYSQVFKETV
Test: TLR7 human peripheral blood mononuclear cell (PBMC) cell-based assay
Conditions: human PBMCs; 1 h with test antagonist, then TLR7 agonist GS-986 400 nM for 6 h; cytokines (IL-6 and IFNα) in supernatant; read-out: TLR-7 EC50
Recall that pEC50 is obtained by taking minus log10 of the concentration measured in molar.

Exam item: Any idea what pEC50 came out for Cc1c(C2CCN(CC3(C)COC3)CC2)sc2[nH]c(-c3cn4ncnc4c4c3CCC4)c(C(C)C)c12 on TLR7 (Homo sapiens)?
Marked response: 8.22

Exam item: Any idea what pEC50 came out for Cc1c(C2CCC(N3CC4(COC4)C3)CC2)sc2[nH]c(-c3cn4ncnc4c4c3CCC4)c(C(C)C)c12 (stereo not shown) on TLR7 (Homo sapiens)?
Marked response: 10.00

Exam item: Any idea what pEC50 came out for Cc1nc2c3c(c(-c4[nH]c5sc([C@@H]6C[C@@H]7C[C@H]6CN7CC(N)=O)c(C)c5c4C(C)C)cn2n1)COC3 on TLR7 (Homo sapiens)?
Marked response: 8.96

Exam item: Any idea what pEC50 came out for Cc1c(C2CCN(C(=O)[C@@H]3COCCN3)CC2)sc2[nH]c(-c3cn4ncnc4c4c3CCC4)c(C(C)C)c12 on TLR7 (Homo sapiens)?
Marked response: 9.54

Exam item: Any idea what pEC50 came out for Cc1c(C23CCNCC2C3)sc2[nH]c(-c3cn4ncnc4c4c3CCC4)c(C(C)C)c12 (stereo not shown) on TLR7 (Homo sapiens)?
Marked response: 9.64

Exam item: Any idea what pEC50 came out for Cc1c(C2CCN(C(=O)C3(N4CCOCC4)CC3)CC2)sc2[nH]c(-c3cn4ncnc4c4c3CCC4)c(C(C)C)c12 on TLR7 (Homo sapiens)?
Marked response: 8.33

Exam item: Any idea what pEC50 came out for Cc1nc2c3c(c(-c4[nH]c5sc([C@@H]6C[C@H]7CC[C@@H](C6)N7CC(N)=O)c(C)c5c4C(C)C)cn2n1)COC3 on TLR7 (Homo sapiens)?
Marked response: 8.92
